// provenance: ChEMBL document CHEMBL2440016

Overview of reported Ratio CC50/IC50 across a group of compounds:
METHOD_SUMMARY: Selectivity index, ratio of CC50 for mouse J774.1 cells to IC50 for Leishmania donovani MHOM/IN/00/DEVI
Type: functional

O=[N+]([O-])c1c(CS(=O)(=O)c2ccc(Cl)cc2)nc2ccc(Br)cn12	1.1

// recorded Ratio CC50/IC50 for O=S(=O)(Cc1cn2cc(Br)ccc2n1)c1ccc(Cl)cc1 : <0.9

// recorded Ratio CC50/IC50 for Cc1ccc(S(=O)(=O)Cc2cn3cc(Br)ccc3n2)cc1 : <0.4

// recorded Ratio CC50/IC50 for COc1cc(-c2ccc3nc(CS(=O)(=O)c4ccccc4)c([N+](=O)[O-])n3c2)cc(OC)c1OC : <0.1

// recorded Ratio CC50/IC50 for Cc1ccc(S(=O)(=O)Cc2cn3cc(I)ccc3n2)cc1 : <0.5

// recorded Ratio CC50/IC50 for Cc1ccc(S(=O)(=O)Cc2cn3cc(Cl)ccc3n2)cc1 : 0.9
